// data source = the supplement of paper PMC12042874

Assay: amyloid nucleation score (Sup35N fusion, yeast selection) (log enrichment); library NNK2; higher = more nucleation; inactive = no reads after selection;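 note: zero at mode of non-aggregating sequences after 7 days selection at 30°C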

chain	amyloid nucleation score
TNITGVIRVL	-0.211
MDGNDYAVVR	0.861
FVQSNYDSSF	inactive
DLSHNVNVCICFCWAMRYDA	8.34
AVQEEARLALSVEPWSSDSG	1.22
PPDNVSNWYVVKWAGRMMQK	4.13
WSVDYDGCLCS	-0.094
CRNLPGVCEMPSGVANYRVL	-0.547
CTVFCLQRSFGHYSLMMLIN	2.22
YCFVDALSCDLPNHEHMDVF	inactive
RYRWDLSPRNTTTN	3.22
RLRDRNDHVLRCSHYWIQDW	0.956
IFKCRRVI	4.61
YYGCCMVLTEPVG	6.29
AWRYWFHTLSLTLKNWTSVF	5.14
ASYLLKVVVYIHLSGSHGVD	4.55
TLWEGVFKRSWLGVSGSKVE	0.401
RSRRRHRLDVGSWRWCCGES	4.08
ICSYSVAGCYRKYRASFSGE	inactive
WLFRGSIVKWTPHRPDRYAC	-0.088
LTVDCQDSLLYWHRMMSRPL	0.853
GFVDTTLCMVNLFYGRKSHL	7.86
SIKPVLVSDFEKAV	0.661
KASLGLFYTWVQLSLHISCG	-0.488
SSVLPGVRPGWNTMWWAACL	0.844
GIVFVLLLMNVFEVCRSELM	inactive
NRSHCIVVQLLRCFGYVPYG	inactive
FNVNRLAVLSYVSSWSGVIM	-0.772
LLSVCFSRARC	1.07
YYMRRVSGLDISGRMCCKSV	0.106
CFESHWCRYPLDGRLGHKEF	inactive
SRKFFPVFN	inactive
LLHIFLYGLSLILWWSHRTR	7.06
RDSVCMTRLDMGLDCEWVFG	1.57
RGFNGSLR	0.552
SECCLVELINLTDGGMRGSA	0.5

---

Assay: amyloid nucleation score (Sup35N fusion, yeast selection) (log enrichment); library NNK1; higher = more nucleation; inactive = no reads after selection
# Lookup of reported amyloid nucleation score keyed by entry

substance	amyloid nucleation score
NYYCRDVI	0.392
WSLPAVRRCHNELEYCNTRR	0.107
SFSVVCRLKRAFGLAVIVRR	0.184
RMIDMGTDTVFCLMSFARIN	-0.354
CRLSNGV	-0.392
AYILRWFFTSECRSVQSTSK	-0.105
IHVPNYVDRELELRASNSSR	-0.298
SLVLSSFPLLIDNSSIESLV	-0.82
ESCVRYRSACSMFV	0.902
PVMFVDSMSVWVLLVCYRR	0.19
FSQYVGDFYILMRVSFEFMK	0.033
CLDNWLGGHNSLSSYSG	0.538
WCNNYLSRLCRRVINLEAGL	-1.13
SSDMGFFARYLSLNH	0.512
ANTLRKMNLLSELVLNLLTG	3.3
FGLIVQTIMFRWHQKGSNFE	-1.05
IRSQKCCFLHRWFLACFRII	-0.624
LNWMCTNWAMFFYTQVILQY	-0.488
FSVWGLRLTRARMQTERVLL	0.86
VTDCKLMCTVRPVSGSKTPV	0.139
LWGRGCMCWVVVARCFWPLR	-0.153
WCKILYAKQERWP	0.677
SLWRDKDISWGGKSYVHVPS	1.14
YFKAMEVTFSFWH	0.491
FLYPVHLVLHCSTSYMQTDS	0.241
QALYSCDDYRGYRTSQCPRS	-1.13
GHISIMVHYLFVSTHSSQED	4.46
TTGSGSRSNWWYGSPNYYLS	-0.867
CLCDAISYSGIIKDVDKVCE	0.875
ILHQAILRCVSRYGLS	-0.012
VVTSLIL	-0.999
FFIGFIL	1.59
NVYDMFIKFGVGVASSVSAC	-1.48
PQSFWNARCPCPLNRLNGVW	-0.474
FNIAALSEYCGPLKSNAHW	-0.27
IVNNIVCSAGVDPFSQHCMD	1.84
MSSVLFYYGFNTFEYSDMYM	-0.15
PWTSHVNFRSSGYLSNCLNF	-0.145
FVRIRYITGRITSDRRREFC	0.591
TMICFVVGFFGIQDKVVKCD	0.135
TPCLKQLLLSSLILEGP	-0.6
YWLSSVHSQSRVAK	-0.298
SISAASCIHFRMDVVCKTDF	-0.519
SVQRAV	-0.489
IYVYWSDISV	0.907
ILILNGLGGHVFARWYVACT	0.002
WCVYNFSCALISPY	6.02
SDVVGGYWEDKTSSYGSRLM	0.423
CEGKGWFANITYSDFLLIMR	-0.462
SSNFLRILIGTFVRYRV	0.073
HGIFEGRITVILKGY	4.05
RLYRWPIWWWVSLSEMGISQ	-0.205
WHGVFKTRNRLCGTLPWFCA	-0.143
VRLCIVHHG	0.527
NLLFAVMLVFSRVQVVFNNG	-0.355
GKNTYVCVGSSASSFWGSLL	0.86
SLSRNYHPFRAKIFLCLGRN	0.097
SFMSGSFEWPRSYRALGFKA	-0.719
PAFFCFWNNLSCVSTWSYLV	2.44
MRVWKSILFDRSFFVFGLWR	-0.543
VMYHGVLYLVNKKVRAWVVG	-0.511
RKLFYG	-0.017
SLPFTFSLVMMCFFVCVRGL	-1.76
TEEKSRVRLFNRRHRGISRG	3.95
AQARWCWRLH	0.963
TWIVEELFIGDRLALREGFR	0.406
LSRFEQGHELLHKSVIYCEV	-0.304
SFVIFCRKGNWEWDD	-0.671
RLFLKPAQWPNH	0.562
WLVAHAPGH	0.471

---

Assay: amyloid nucleation score (Sup35N fusion, yeast selection) (log enrichment); library NNK1; higher = more nucleation; inactive = no reads after selection

substance	amyloid nucleation score
TSRFPKASKSRLTRDCP	0.323
TRWQITDPYSPCTWSCSWTQ	0.906
FKRLNRFYRSLAIMTSTSHL	-0.149
NKNMSNKFVSIMQKFFSIDG	2.72
GLRSESRKRGGGGGVAREVG	-0.053
YIMFDVLLTDKRPSSSVCSC	3.41
TEGFGW	1.28
SFVVGNGYMVGWWFITAHVA	0.499
TSYGISLPAHP	0.541
SMCNEVDGTDGYAAIGLYMY	-1.65
GVVGVNSADLFNGKIVIKFS	1.81
KSCDSESFYGDTRSFHTDSV	-1.5
LAFGFTSWS	0.49
NIKEKG	0.635
MLYPNNKSVVLVVMELRPNA	0.648
NWVRFIHFYYNGTRLWAEFV	-0.915
PSTDLWWLGNTLSIGNRIVY	-0.879
DYRGTPNSWMIFMTPRGSLI	-0.004
NSSLLDISLYDNLVQGSDWP	-0.249
VAMILYGFTFWILRCNEWCR	0.377
RDNKVPVR	-0.537
QLSRSVWRRMRRQQKHPLTG	1.62
AVVERFHL	-0.132
MMSFVEKPQGESSSNEWGVN	-0.777
GDRKACSVRCRHATDKICAD	-0.309
IGVRRFFLWS	-0.753
QRVIAGPPNRAGKAYQALSR	0.107
TLEFLMPSYLFHLGRMVNLS	-0.927
ICISSPVMMKAIPLPFEFSR	-0.167
NPCWTVYLEFL	0.186
LFGKRCGHGQCQDHWKAVCV	-0.008
GNKPLVVHGSGGICKLCE	-0.147
RPFLIIKLLGVGLSVKPNCG	-0.158
RWNRSSDTCLCLHSMMLT	-0.518
TFADNF	-1.28

---

Experiment: amyloid nucleation score (Sup35N fusion, yeast selection) (log enrichment); library NNK2; higher = more nucleation; inactive = no reads after selection
# Lookup of reported amyloid nucleation score keyed by entry

substance	amyloid nucleation score
SHSSMVLRLVRVWCVCRG	0.342
LRGSFNLVSYFTQLRSCDYF	-1.27
VYHLLFSGC	0.219
RARARHDLRGQRKVLRDRRF	0.849
DLNYFSTMGEVLYMFSVLTY	-0.08
YVRNFPLGLSV	-1.63
THIITWSVNFTKGWQCFESQ	1.36
MYCYSHDQCESLGQRSFGDT	0.218
SQVLLGQCCMNHKDLSFVWI	0.708
MFILGAHGKFGSTTMGVLAC	-1.64
CGVVSLCSGWSLMYDRGWWG	10.2
TLHFKFMVIRRN	-0.254
CAKLGTSSRFIFE	0.073
RCTGVMPV	-0.072
YNVMDVMYYAQKWLLWWSKV	-0.353
LNNLLS	0.315
